# assay protocol: Lipophilicity, logD of the compound at pH 7.4
# Format: physicochemical
# measurement context: buffer
measure: logD

O=C(c1sc(-c2cccc(F)c2)nc1O)N1CCCO1	0.82

[A] CC(=O)c1sc(-c2cccc(F)c2)nc1O
[B] CCOC(=O)c1sc(-c2cccc(F)c2)nc1O
[C] CCC(=O)c1sc(-c2cccc(F)c2)nc1O
# input Ascending by logD, please: list the compounds accordingly. Order the labels as requested and list them.
# output C, A, B

----------
# measured target: Transient receptor potential cation channel subfamily M member 8 (Homo sapiens)
# Sequence (Q7Z2W7 whole entry): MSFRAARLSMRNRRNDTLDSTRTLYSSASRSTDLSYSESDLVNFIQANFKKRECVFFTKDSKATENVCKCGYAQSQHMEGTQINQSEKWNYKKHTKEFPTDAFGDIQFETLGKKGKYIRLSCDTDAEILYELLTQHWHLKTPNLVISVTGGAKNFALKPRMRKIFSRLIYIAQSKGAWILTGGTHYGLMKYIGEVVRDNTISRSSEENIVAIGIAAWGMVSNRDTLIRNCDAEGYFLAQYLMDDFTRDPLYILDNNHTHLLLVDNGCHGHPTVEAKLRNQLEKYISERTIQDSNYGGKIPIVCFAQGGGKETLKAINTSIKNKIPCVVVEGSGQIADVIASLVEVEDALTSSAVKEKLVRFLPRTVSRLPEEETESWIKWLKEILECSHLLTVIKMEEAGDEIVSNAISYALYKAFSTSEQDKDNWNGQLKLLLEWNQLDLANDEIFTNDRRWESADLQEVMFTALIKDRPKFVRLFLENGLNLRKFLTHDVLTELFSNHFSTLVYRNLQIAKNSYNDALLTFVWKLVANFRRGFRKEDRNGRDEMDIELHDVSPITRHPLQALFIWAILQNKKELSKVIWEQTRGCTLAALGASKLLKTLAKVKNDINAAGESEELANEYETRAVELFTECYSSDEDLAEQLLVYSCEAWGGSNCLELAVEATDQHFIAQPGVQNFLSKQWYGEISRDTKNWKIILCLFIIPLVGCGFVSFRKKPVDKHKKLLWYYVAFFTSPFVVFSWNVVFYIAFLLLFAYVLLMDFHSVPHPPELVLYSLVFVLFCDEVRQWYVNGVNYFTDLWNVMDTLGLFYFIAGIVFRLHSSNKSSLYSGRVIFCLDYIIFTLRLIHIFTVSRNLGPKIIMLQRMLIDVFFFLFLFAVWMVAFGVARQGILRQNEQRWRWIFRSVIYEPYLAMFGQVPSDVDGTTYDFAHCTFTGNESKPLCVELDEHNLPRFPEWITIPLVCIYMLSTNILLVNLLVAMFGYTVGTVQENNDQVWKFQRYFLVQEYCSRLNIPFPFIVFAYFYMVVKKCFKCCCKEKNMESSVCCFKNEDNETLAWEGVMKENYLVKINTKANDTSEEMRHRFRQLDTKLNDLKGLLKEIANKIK
# assay protocol: Inhibition of human TRPM8 expressed in HEK293 cells assessed as reduction in ethyl 4-methoxy-2-phenylthiazole-5-carboxylate induced Ca2+ efflux preincubated for 5 mins followed by ethyl 4-methoxy-2-phenylthiazole-5-carboxylate addition and measured for 3 mins by FLIPR assay
# Assay type: cell-based
measure: IC50 (µM)

CCOC(=O)c1sc(-c2cccc(F)c2)nc1O	0.039
CCn1nnc(-c2sc(-c3ccc(O)cc3)nc2O)n1	11.6
CCOC(=O)c1sc(-c2ccccc2)nc1O	0.032
Cn1nnc(-c2sc(-c3cccc(F)c3)nc2O)n1	0.214
CCn1nnc(-c2sc(-c3cccc(N)c3)nc2O)n1	0.061

[1] CCn1nnc(-c2sc(-c3ccc(Cl)cc3)nc2O)n1
[2] CCOC(=O)c1sc(-c2cccc(Cl)c2)nc1O
[3] CCC(=O)c1sc(-c2cccc(F)c2)nc1O
# input Ascending by IC50, please: list the molecules accordingly. Order the labels as requested and list them.
# output 3, 2, 1
(3: 0.029 µM, 2: 1.3 µM, 1: 7.55 µM)

----------
# assay protocol: Metabolic stability in rat liver microsomes assessed as parent compound remaining after 4 hrs
# Format: ADME, Microsome
# measurement context: read-out: Stability
measure: remaining at 4 h (%)
Output spec: scalar in %, unitless text.

# input Please give measured remaining at 4 h of the following entry: CCOC(=O)c1sc(-c2cccc(F)c2)nc1O
# output 105

----------
# assay protocol: Solubility of compound at pH 7.4
# Format: physicochemical
# measurement context: buffer
measure: solubility (mM)

Reference set (2 entries):
O=C(c1sc(-c2ccccc2O)nc1O)N1CCCO1	9.7
CCOC(=O)c1sc(-c2cccc(F)c2)nc1O	0.08

[A] CCn1nnc(-c2sc(-c3cccc(F)c3)nc2O)n1
[B] CCC(=O)c1sc(-c2cccc(F)c2)nc1O
# input Between the entries labeled A and B , whose measured solubility is lower? The response must carry the label of the picked entry.
# output A

----------
# assay protocol: Half life in rat at 10 mg/kg, iv
# Type: ADME, organism-based
# measurement context: in vivo
measure: half-life (min)
Output spec: scalar in min, unitless text.

# input Please give measured half-life of the following entry: CCOC(=O)c1sc(-c2cccc(F)c2)nc1O
# output 33.6

----------
# assay protocol: Metabolic stability in rat liver microsomes assessed as phase 1 metabolism by measuring half life
# Assay type: ADME, Microsome
measure: half-life (min)

Reference set (4 entries):
CCOC(=O)c1sc(-c2cccc(F)c2)nc1O	27
CC(=O)c1sc(-c2cccc(F)c2)nc1O	35.2
CC(C)CC(=O)c1sc(-c2cccc(F)c2)nc1O	49.8
CCCC(=O)c1sc(-c2cccc(F)c2)nc1O	39.3

[a] CCn1nnc(-c2sc(-c3cccc(F)c3)nc2O)n1
[b] CC(C)C(=O)c1sc(-c2cccc(F)c2)nc1O
[c] CCC(=O)c1sc(-c2cccc(F)c2)nc1O
# input // sort entries: half-life, high to low Order the labels as requested and list them.
# output c, b, a
(c: 118 min, b: 59.1 min, a: 38 min)

----------
# assay protocol: Half life in rat at 10 mg/kg, po
# Assay type: ADME, organism-based
# measurement context: in vivo
measure: half-life (h)

CCOC(=O)c1sc(-c2cccc(F)c2)nc1O	2.28

[1] CCn1nnc(-c2sc(-c3cccc(F)c3)nc2O)n1
[2] CCC(=O)c1sc(-c2cccc(F)c2)nc1O
# input So which one has the bigger half-life here, 1 or 2 ? The response must carry the label of the picked entry.
# output 1

----------
# assay protocol: Apparent permeability in HCECs at 0.1%
# Assay type: ADME, cell-based, HCEC
# measurement context: human, not told
measure: Papp at 0.1 % (×10⁻⁶ cm/s)

O=C(c1sc(-c2ccccc2O)nc1O)N1CCCO1	48.3

[P] O=C(O)c1ccc(C(=O)O)c(-c2c3ccc(=O)cc-3oc3cc(O)ccc23)c1 [6-Carboxyfluorescein]
[Q] O=C(c1sc(-c2cccc(F)c2)nc1O)N1CCCO1
[R] CCN(CC)c1ccc2c(-c3ccccc3C(=O)O)c3ccc(=[N+](CC)CC)cc-3oc2c1.[Cl-] [RHODAMINE]
# input Ascending by Papp at 0.1 %, please: list the compounds accordingly. Order the labels as requested and list them.
# output P, Q, R

----------
# assay protocol: Volume of distribution at steady state in rat at 10 mg/kg, iv
# Assay type: ADME, organism-based
# measurement context: in vivo, read-out: Vdss
measure: Vd (L/kg)
Output spec: scalar in L/kg, unitless text.

# input Please give measured Vd of the following entry: CCOC(=O)c1sc(-c2cccc(F)c2)nc1O
# output 0.259

----------
# assay protocol: Oral bioavailability in rat at 10 mg/kg
# Assay type: ADME, organism-based
# measurement context: in vivo
measure: bioavailability (%)

CCn1nnc(-c2sc(-c3cccc(F)c3)nc2O)n1	1

[A] CCOC(=O)c1sc(-c2cccc(F)c2)nc1O
[B] CCC(=O)c1sc(-c2cccc(F)c2)nc1O
# input So which one has the bigger bioavailability here, A or B ? The response must carry the label of the picked entry.
# output B

----------
# assay protocol: Clearance in rat at 3 mg/kg, iv
# Type: ADME, organism-based
# measurement context: in vivo
measure: clearance (mL/min/kg)
Output spec: scalar in mL/min/kg, unitless text.

# input Please give measured clearance of the following entry: CCn1nnc(-c2sc(-c3cccc(F)c3)nc2O)n1
# output 3.11

----------
# assay protocol: Dissociation constant, pKa of the compound
# Format: physicochemical
measure: pKa

Reference set (8 entries):
CCn1nnc(-c2sc(-c3cccc(F)c3)nc2O)n1	5.9
COc1cccc(NS(=O)(=O)c2c(C)cc(C)c([N+](=O)[O-])c2C)c1	7.8
COC(=O)c1sc(-c2ccccc2)nc1O	6.3
CC(=O)c1sc(-c2cccc(F)c2)nc1O	4.1
CCCC(=O)c1sc(-c2cccc(F)c2)nc1O	4.31
O=C(c1sc(-c2cccc(F)c2)nc1O)N1CCCO1	6.3
CC(C)CC(=O)c1sc(-c2cccc(F)c2)nc1O	4.3
CC(C)C(=O)c1sc(-c2cccc(F)c2)nc1O	4.27

[1] CCOC(=O)c1sc(-c2cccc(F)c2)nc1O
[2] O=C(c1sc(-c2ccccc2O)nc1O)N1CCCO1
# input So which one has the bigger pKa here, 1 or 2 ? The response must carry the label of the picked entry.
# output 2
(2: 9.3, 1: 4.7)

----------
# assay protocol: Metabolic stability in rat liver microsomes assessed as parent compound remaining after 30 mins
# Assay type: ADME, Microsome
measure: half-life

# input Please give measured half-life of the following entry: CCn1nnc(-c2sc(-c3cccc(F)c3)nc2O)n1
# output < 30 min

----------
# assay protocol: Clearance in rat at 10 mg/kg, iv
# Format: ADME, organism-based
# measurement context: in vivo
measure: clearance (mL/min/kg)
Output spec: scalar in mL/min/kg, unitless text.

# input Please give measured clearance of the following entry: CCOC(=O)c1sc(-c2cccc(F)c2)nc1O
# output 24

----------
# assay protocol: Half life in rat at 3 mg/kg, iv
# Type: ADME, organism-based
# measurement context: in vivo
measure: half-life (min)
Output spec: scalar in min, unitless text.

# input Please give measured half-life of the following entry: CCn1nnc(-c2sc(-c3cccc(F)c3)nc2O)n1
# output 44.4

----------
# measured target: UniProt Q7Z2W7
# assay protocol: Inhibition of human TRPM8 expressed in HEK293 cells assessed as reduction in cold stimulated Ca2+ efflux preincubated for 5 mins followed by cold stimulation and measured for 3 mins
# Type: cell-based
measure: pIC50
// field semantics: pIC50 = negative decimal log of concentration (mol/L)

# input Please give measured pIC50 of the following entry: CCC(=O)c1sc(-c2cccc(F)c2)nc1O
# output 8.07

----------
# assay protocol: Stability in rat plasma assessed as compound remaining after 60 mins
# Format: ADME, cell-free
# measurement context: read-out: Stability
measure: remaining at 1 h (%)
Output spec: scalar in %, unitless text.

# input Please give measured remaining at 1 h of the following entry: CCn1nnc(-c2sc(-c3cccc(F)c3)nc2O)n1
# output 92

----------
# assay protocol: Cmax in rat at 10 mg/kg, po
# Type: ADME, organism-based
# Design: dose 10 mg/kg, route po
# measurement context: in vivo
measure: Cmax (ng/mL)

CCOC(=O)c1sc(-c2cccc(F)c2)nc1O	2140

[A] CCn1nnc(-c2sc(-c3cccc(F)c3)nc2O)n1
[B] CCC(=O)c1sc(-c2cccc(F)c2)nc1O
# input Between the entries labeled A and B , whose measured Cmax is lower? The response must carry the label of the picked entry.
# output A
(A: 47 ng/mL, B: 10700 ng/mL)

Measured values drawn from ChEMBL document CHEMBL5260854 for this set.
